# protocol.text: NCI Yeast Anticancer Drug Screen. Data for the rad50 strain (AID 155);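 also: 0% = growth of vehicle-only cultures of the same strain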
# settings: S. cerevisiae rad50 strain growth inhibition, hits give high values; at 50.0 µM unless noted
The panel holds about 79,000 compounds, 15% with a hit somewhere; the sample as a whole holds those more often.
test.readout: growth inhibition (%)
Numeric answer only, unit % assumed.

Illustrative cases are given below, each with its answer.
CC(=O)OC[C@@]12C[C@H]3C(=O)C(C)(C)C[C@H]3[C@]1(C)[C@@H](OC(C)=O)[C@]1(O)[C@H]([C@@H](OC(=O)c3ccccc3)[C@@H](C)[C@H]1OC(C)=O)[C@H]2OC(C)=O = -13.6
NC(=S)Cc1ccncc1 = 12.8
Cc1ccccc1NC(=O)C(=O)CC(=O)c1sc(-n2nc(-c3ccccc3)cc2-c2ccccc2)nc1C = 12.3
NC(=S)c1ccc2ccccc2c1 = 9.95
C=C1CC2C=CC1C2 (centres undefined) = 3.65
Nn1c(CCCl)nc2c(Br)cc(Br)cc2c1=O = 13.8
O=C(O)CC(CS(=O)O)C(=O)O (centres undefined) = -9.65
CC(=O)OCC1COC(c2ccc(C)cc2)O1 (centres undefined) = 12.9

What value of growth inhibition has been reported for the following compound? C1COC2SC3=C(SC(=C4SC5=C(SCCS5)S4)S3)SC2O1 (centres undefined)
3.05

What value of growth inhibition has been reported for the following compound? N#CC(C(=O)/C(=N/Nc1nc(=S)[nH]n1N)C(C#N)c1ccccc1)c1ccccc1 (centres undefined)
-23.8

What value of growth inhibition has been reported for the following compound? O=C(N/N=C/c1ccc(O)cc1)C(c1ccccc1)N1CCCCC1 (centres undefined)
5.85

What value of growth inhibition has been reported for the following compound? COc1ccc(OC)c(NC(=O)C(=O)C(C(C)=O)c2nc3ccc(Cl)cc3[nH]c2=O)c1 (centres undefined)
-12.8

What value of growth inhibition has been reported for the following compound? CC(Cl)(c1ccccc1)C1OCCO1 (centres undefined)
1.75

What value of growth inhibition has been reported for the following compound? COc1ccccc1/C=C1\SC(=S)NC1=O
-44.6
